B1: Pistol ribozyme (parent)
chain: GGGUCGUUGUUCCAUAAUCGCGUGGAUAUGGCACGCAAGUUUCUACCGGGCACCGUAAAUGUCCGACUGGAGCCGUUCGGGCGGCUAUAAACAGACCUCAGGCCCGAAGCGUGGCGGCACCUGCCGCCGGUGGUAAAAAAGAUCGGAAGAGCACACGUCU

# Variants of: B1
# EXPERIMENT_SUMMARY: aptazyme ON/OFF ratio, guanine; higher = stronger switching; co-transcriptional cleavage with and without guanine
Reported aptazyme ON/OFF ratio values follow for various variants
Give the figure by itself; no unit, no explanation.

U7G U10G U11G C12G C13G = 1.11
U7A U8G G9C U10C = 2.58
U7C U10A U11C = 1.04

In: Find the recorded aptazyme ON/OFF ratio belonging to U7A U8G G9C U10C U11A C13G and report it.
Out: 1.22

In: # query: aptazyme ON/OFF ratio of entry U7G U8G U10G U11C
Out: 2.08

In: Entry under review: G9U U11G C12A C13G . Reported aptazyme ON/OFF ratio?
Out: 1.32

In: Suppose we examine the variant U7G U8C G9C U10C U11C C12G C13U ; what aptazyme ON/OFF ratio value has been reported?
Out: 1.04

In: What measured aptazyme ON/OFF ratio goes with U7C U8C G9C U10G U11C ?
Out: 1.5
